Source listed as paper PMC8809517.

# key: entry, value: pKd
TESTED TARGET: T1, GFP-9S library array, motif 4 ND N98K;D124L (synthetic construct, N98K;D124L)
T1 chain: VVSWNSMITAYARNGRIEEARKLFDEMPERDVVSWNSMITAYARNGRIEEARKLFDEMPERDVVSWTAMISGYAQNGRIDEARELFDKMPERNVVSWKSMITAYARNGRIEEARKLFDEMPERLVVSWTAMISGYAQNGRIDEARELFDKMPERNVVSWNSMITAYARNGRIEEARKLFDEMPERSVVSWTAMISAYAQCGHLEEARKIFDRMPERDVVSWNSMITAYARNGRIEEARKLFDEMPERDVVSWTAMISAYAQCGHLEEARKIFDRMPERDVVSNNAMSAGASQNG
ASSAY DETAILS: high-throughput RNA pulldown from lysate on Ni-NTA beads; HRP: 50 mM Tris pH 8, 150 mM NaCl, 1 mM beta-mercaptoethanol, 50 ug/ml BSA, 3 ug/ml yeast RNA, 0.5% heparin; ITC and FP: Tris pH 8, 200 mM KCl, 5% glycerol; MST: 50 mM Tris pH 8, 200 mM NaCl, 1 mM DTT, BSA, heparin, 0.05% Tween 20
MEASUREMENT CONTEXT: tags: N-terminal His-eGFP; label: 5' IRDye 800CW
By convention, pKd is the negative base-10 log of a molar concentration.

binder="AUUAAACGUGA (ssRNA) [IR-rpoA-A]" result=6.82

Then there is this binder:
What does the data say about its pKd? Entry: AUUAUACGUGA (ssRNA) [IR-rpoA-U]
6.76
